Where do these numbers come from? They come from PubChem BioAssay AID1259407.

tested on: CCRIS mutagenicity, Ames/micronucleus/aberration tests; assay: CCRIS mutagenicity studies; conditions: Test System: AMES SALMONELLA TYPHIMURIUM; Strain/Indicator: TA100; Metabolic Activation: NONE; Method: PREINCUBATION
Activity calls are given as the source filed them. The rule behind the calls is not given here.
The categories you may choose from are yes = active, no = inactive

Query: Hi, sorry to bother you, what did the test record for "CC(=O)OC(C)(C)C" ?
Reply: no

Query: Hi, sorry to bother you, what did the test record for "O=C1CN(CCN2CC(=O)N(CN3CCOCC3)C(=O)C2)CC(=O)N1CN1CCOCC1" ?
Reply: no

Query: Hi, sorry to bother you, what did the test record for "[Cl][Pt-2]([Cl])([Cl])[Cl]" ?
Reply: yes

Query: Hi, sorry to bother you, what did the test record for C=CCC1(C(C)C#CCC)C(=O)N=C(O)N(C)C1=O (configuration not stated) ?
Reply: no

Query: Hi, sorry to bother you, what did the test record for "NC(=O)/C(=C\c1ccc([N+](=O)[O-])o1)c1ccco1" ?
Reply: yes

Query: Hi, sorry to bother you, what did the test record for "CNc1ccc2nccnc2c1C" ?
Reply: no

Query: Hi, sorry to bother you, what did the test record for "Nc1c2c(nc3ccccc13)CCCC2" ?
Reply: no

Query: Hi, sorry to bother you, what did the test record for "Cc1ccc(N)cc1[N+](=O)[O-]" ?
Reply: yes

Query: Hi, sorry to bother you, what did the test record for "Cc1cc2c3c(ccc2c2ccccc12)[C@@H](O)[C@H](O)[C@@H]1O[C@H]31" ?
Reply: no

Query: Hi, sorry to bother you, what did the test record for "CC(C)(C)N" ?
Reply: no

Query: Hi, sorry to bother you, what did the test record for "CC(=O)Nc1ccc(Cc2ccc(NC(C)=O)c(Cl)c2)cc1Cl" ?
Reply: no

Query: Hi, sorry to bother you, what did the test record for CC(=O)O[C@H]1[C@H](OC23C=C(C)C4(CC4)C(C)(O)C2C(=O)C(C)(C)C3)O[C@H](CO)[C@@H](OC(=O)/C=C\c2ccc(O)cc2)[C@@H]1O (some centres not stated) ?
Reply: yes

Query: Hi, sorry to bother you, what did the test record for "C=Cc1ccccc1Cl" ?
Reply: no

Query: Hi, sorry to bother you, what did the test record for O=C(OCC1CO1)c1cccc(C(=O)OCC2CO2)c1 (configuration not stated) ?
Reply: yes

Query: Hi, sorry to bother you, what did the test record for "O=C(OC1CCCCC1)c1ccccc1C(=O)OC1CCCCC1" ?
Reply: no

Query: Hi, sorry to bother you, what did the test record for "O=[N+]([O-])c1cccc(Cl)c1Cl" ?
Reply: no

Query: Hi, sorry to bother you, what did the test record for "O=C/C(Br)=C/c1ccccc1" ?
Reply: yes

Query: Hi, sorry to bother you, what did the test record for "Nc1n[nH]c(N)n1" ?
Reply: no

Query: Hi, sorry to bother you, what did the test record for "CCCCOC(=O)c1ccccc1N" ?
Reply: no

Query: Hi, sorry to bother you, what did the test record for "Nc1cc2c3ccccc3ccc2c2ccccc12" ?
Reply: yes

Query: Hi, sorry to bother you, what did the test record for "Nc1ccc(S(=O)(=O)c2ccc(N)cc2)cc1" ?
Reply: no

Query: Hi, sorry to bother you, what did the test record for "Cc1c2cccc(C)c2nc2c1ccc1ccccc12" ?
Reply: no

Query: Hi, sorry to bother you, what did the test record for CC(Cl)CCl (configuration not stated) ?
Reply: no

Query: Hi, sorry to bother you, what did the test record for "C=C[Si](OCC)(OCC)OCC" ?
Reply: no

Query: Hi, sorry to bother you, what did the test record for "NCC(=O)CCC(=O)O" ?
Reply: no

Query: Hi, sorry to bother you, what did the test record for "Nc1nc(-c2ccc([N+](=O)[O-])cc2)nc2nc[nH]c12" ?
Reply: yes

Query: Hi, sorry to bother you, what did the test record for "O=[N+]([O-])c1cccc2c1oc1ccccc12" ?
Reply: no

Query: Hi, sorry to bother you, what did the test record for "Nc1cc(C(=O)O)c(O)c(S(=O)(=O)O)c1" ?
Reply: no

Query: Hi, sorry to bother you, what did the test record for "CCCCCCCCCCCCOCCO" ?
Reply: no

Query: Hi, sorry to bother you, what did the test record for "CCCCCc1cc(O)c2c(c1)OC(C)(C)[C@@H]1CCC(C)=C[C@@H]21" ?
Reply: no

Query: Hi, sorry to bother you, what did the test record for "CN[C@@H]1[C@H](O[C@H]2[C@H](O[C@H]3[C@H](O)[C@@H](O)[C@H](N=C(N)N)[C@@H](O)[C@@H]3N=C(N)N)O[C@@H](C)[C@]2(O)C=O)O[C@@H](CO)[C@H](O)[C@H]1O" ?
Reply: no

Query: Hi, sorry to bother you, what did the test record for "c1ccc(N=NNc2ccccc2)cc1" ?
Reply: no

---

test system: CCRIS mutagenicity, Ames/micronucleus/aberration tests; experiment: CCRIS mutagenicity studies; settings: Test System: AMES SALMONELLA TYPHIMURIUM; Strain/Indicator: TA98; Metabolic Activation: NONE; Method: STANDARD PLATE
The source made the active and inactive calls. No rule for the calls is given here. *1 amine or outer side, *2 acyl side, *3 side chain or, on linkers, in order; H or OH if unused. Where a SMILES comes first, the peptide text is derived from it. Bridges are numbered along the chain shown (N, C = ends). Roman numbers before positions name the chains, in order. [ ]: non-standard residue; d: D form. Actinocin(9to1) = Cc1c2oc3c(C)ccc(C(=O)[*:1])c3nc-2c(C(=O)[*:2])c(N)c1=O; NMeV = CN[C@H](C(=O)O)C(C)C; Sar = CNCC(=O)O
The categories you may choose from are active, inactive

Query: Hi, sorry to bother you, what did the test record for "O=[N+]([O-])c1cc2[nH]c3ccc4ccccc4c3c2c2ccccc12" ?
Reply: inactive

Query: Hi, sorry to bother you, what did the test record for "Nc1ccc(-c2ccc(N)c(Cl)c2)cc1Cl" ?
Reply: active

Query: Hi, sorry to bother you, what did the test record for "O=C(O)Cc1c[nH]c2ccccc12" ?
Reply: inactive

Query: Hi, sorry to bother you, what did the test record for "COC(=O)[C@@H]1O[C@@H]1c1ccccc1" ?
Reply: inactive

Query: Hi, sorry to bother you, what did the test record for "C/C=C(/C(=C/C)c1ccc(O)cc1)c1ccc(O)cc1" ?
Reply: inactive

Query: Hi, sorry to bother you, what did the test record for "ClCc1cc2c3ccccc3cc3ccc4cccc1c4c32" ?
Reply: active

Query: Hi, sorry to bother you, what did the test record for "N#CC(Cl)Cl" ?
Reply: active

Query: Hi, sorry to bother you, what did the test record for "CCc1c(N)ccc2ccccc12" ?
Reply: inactive

Query: Hi, sorry to bother you, what did the test record for "c1ccc2c(c1)-c1cc3ccccc3cc1[C@@H]1N[C@H]21" ?
Reply: active

Query: Hi, sorry to bother you, what did the test record for "O=[N+]([O-])c1ccc2ccc3c4c(cc5ccc1c2c53)CCCC4" ?
Reply: active

Query: Hi, sorry to bother you, what did the test record for "C=CCCCCCCCCC" ?
Reply: inactive

Query: Hi, sorry to bother you, what did the test record for "Cc1ccc(N=Nc2c(O)ccc3ccccc23)c(C)c1" ?
Reply: inactive

Query: Hi, sorry to bother you, what did the test record for "COC(=O)Nc1nc2ccc(/C(=N/O)c3ccc(F)cc3)cc2[nH]1" ?
Reply: inactive

Query: Hi, sorry to bother you, what did the test record for CCN(C)C(=O)Oc1ccc2c(c1)C1(C)CCN(C)C1N2C (configuration not stated) ?
Reply: inactive

Query: Hi, sorry to bother you, what did the test record for "CN(C(=O)c1csc([N+](=O)[O-])c1)c1ccccc1" ?
Reply: active

Query: Hi, sorry to bother you, what did the test record for CC(C)=CC1C(C(=O)OCc2cccc(Oc3ccccc3)c2)C1(C)C (configuration not stated) ?
Reply: inactive

Query: Hi, sorry to bother you, what did the test record for CCC1(C(C)O)OC1(C(N)=O)C(=O)OC (configuration not stated) ?
Reply: inactive

Query: Hi, sorry to bother you, what did the test record for "Cc1ccco1" ?
Reply: inactive

Query: Hi, sorry to bother you, what did the test record for "O=[N+]([O-])c1ccc2cc(O)c3cccc4ccc1c2c43" ?
Reply: active

Query: Hi, sorry to bother you, what did the test record for "CC(C)N(C(=O)SC/C(Cl)=C/Cl)C(C)C" ?
Reply: inactive

Query: Hi, sorry to bother you, what did the test record for "CC(=O)[CH-]C(=O)c1ccccc1.CC(=O)[CH-]C(=O)c1ccccc1.CC[O-].CC[O-].[Ti+4]" ?
Reply: inactive

Query: Hi, sorry to bother you, what did the test record for "O=C(CCl)c1ccc(Cl)cc1Cl" ?
Reply: inactive

Query: Hi, sorry to bother you, what did the test record for "CC(=O)OCc1c2ccccc2c2ccc3cccc4ccc1c2c43" ?
Reply: active

Query: Hi, sorry to bother you, what did the test record for "O=c1cn[nH]c(=O)[nH]1" ?
Reply: inactive

Query: Hi, sorry to bother you, what did the test record for Cc1c2oc3c(C)ccc(C(=O)N[C@@H]4C(=O)N[C@H](C(C)C)C(=O)N5CCC[C@H]5C(=O)N(C)CC(=O)N(C)[C@@H](C(C)C)C(=O)O[C@@H]4C)c3nc-2c(C(=O)N[C@@H]2C(=O)N[C@H](C(C)C)C(=O)N3CCC[C@H]3C(=O)N(C)CC(=O)N(C)[C@@H](C(C)C)C(=O)O[C@@H]2C)c(N)c1=O (I: T[dV]P[Sar][NMeV] / II: T[dV]P[Sar][NMeV]; ester I:1-I:C, II:1-II:C; linker I:N-II:N via Actinocin(9to1)) ?
Reply: inactive

Query: Hi, sorry to bother you, what did the test record for "Nc1nc2cc(Cl)c(Cl)cc2s1" ?
Reply: inactive

Query: Hi, sorry to bother you, what did the test record for "Cc1cccn2c(=O)c(-c3nnn[nH]3)cnc12" ?
Reply: inactive

Query: Hi, sorry to bother you, what did the test record for "C[n+]1cccc(C(=O)[O-])c1" ?
Reply: inactive

Query: Hi, sorry to bother you, what did the test record for "Nc1c(N=Nc2ccc([N+](=O)[O-])cc2)c(S(=O)(=O)O)cc2cc(S(=O)(=O)O)c(N=Nc3ccccc3)c(O)c12" ?
Reply: active

Query: Hi, sorry to bother you, what did the test record for "O=[N+]([O-])c1cc([N+](=O)[O-])c2ccc3cccc4ccc1c2c43" ?
Reply: active

Query: Hi, sorry to bother you, what did the test record for "CCCCCCCCCCCC(=O)OCCS(=O)(=O)O" ?
Reply: inactive

Query: Hi, sorry to bother you, what did the test record for "O=C(CCl)Nc1snc2cc(Cl)ccc12" ?
Reply: inactive
